Assay: Caspase-3/7 induction in HepG2 cells by small molecules, qHTS cell viability counter screen (AID 1346981); also: nearly all actives have a fitted effect of over 30% in size; also: potency is read from the fitted curve at half-maximal effect
Details: CellTiter-Fluor fluorescence, 17 h; series mostly up to 92.4 µM
From the text: U.S. Tox21 Program National Center for Advancing Translational Sciences [NCATS] NIH Chemical Genomics Center [NCGC] U.S. Environmental Protection Agency [EPA] National Institutes of Environmental Health Sciences [NIEHS] National Toxicology Program [NTP] U.S. Food and Drug Administration [FDA] Tox21 Assay Overview: Apoptosis is a process of programmed cell death and plays a central role in the development of multicellular organisms. […]
Records with an inconclusive call do not appear. Calls of active or inactive are those of the source. Calls follow the shape of the dose curve; as a rule, active = well fitted cell-killing curve with a large enough effect in the repeat runs; inconclusive = weak or mixed curves, or effect the other way; inactive = flat fitted curve, though single readings scatter.
measured-quantity: Potency

compound: CCN(CC)CCc1c[nH]c2ccccc12
reported: inactive
//
compound: CC[C@H](C)[C@H]1O[C@]2(C=C[C@@H]1C)C[C@@H]1C[C@@H](C/C=C(\C)[C@@H](O[C@H]3C[C@H](OC)[C@@H](O[C@H]4C[C@H](OC)[C@@H](NC)[C@H](C)O4)[C@H](C)O3)[C@@H](C)/C=C/C=C3\CO[C@@H]4[C@H](O)C(C)=C[C@@H](C(=O)O1)[C@]34O)O2
reported: 15.4 µM (active)
//
compound: CC(C)C(Nc1ccc(C(F)(F)F)cc1Cl)C(=O)OC(C#N)c1cccc(Oc2ccccc2)c1 (stereo not drawn)
reported: inactive
//
compound: COC(=O)c1cc(Oc2ccc(Cl)cc2Cl)ccc1[N+](=O)[O-]
reported: inactive
//
compound: C[C@@H]1CC2=CC(=O)CC[C@@H]2[C@H]2CC[C@@]3(C)[C@@H](CC[C@]3(C)O)[C@@H]21
reported: inactive
//
compound: C[C@]12Cc3cn[nH]c3C[C@@H]1CC[C@@H]1[C@@H]2CC[C@@]2(C)[C@H]1CC[C@]2(C)O
reported: inactive
//
compound: CCNc1nc(NC(C)C(C)C)nc(SC)n1 (stereo not drawn)
reported: inactive
//
compound: COP(=S)(OC)Oc1nc(Cl)c(Cl)cc1Cl
reported: inactive

* * *

molecular target: Nuclear receptor subfamily 1 group I member 2 (Homo sapiens); test: Human pregnane X receptor (PXR) small molecule agonists, qHTS assay (AID 1346982); settings: PXR-Luc HepG2, CYP3A4 luciferase reporter, 24 h; series mostly up to 92.4 µM; also: nearly all actives have a fitted effect of over 35% in size
Records with an inconclusive call do not appear. Active and inactive are the calls of the source. The call rests on the fitted dose curve; in most records, active means well fitted activation curve with a large enough effect in the repeat runs; inconclusive means weak or mixed curves; inactive means no such curve, though single readings can be large or run the other way.
Outcome codes: YES = active, NO = inactive

compound: COc1c2c(cc3c1OCO3)CCN(C)C2
discrete-label: NO
--
compound: CCOP(=S)(OCC)Oc1cc(C)nc(N(CC)CC)n1
discrete-label: YES
--
compound: O=P(Cl)(Cl)Cl
discrete-label: NO
--
compound: CN(C)c1ccc(N)cc1
discrete-label: YES
--
compound: CCC1COC(Cn2cncn2)(c2ccc(Cl)cc2Cl)O1 (centres undefined)
discrete-label: YES
--
compound: O=C(Nc1ccc(F)cc1F)c1cccnc1Oc1cccc(C(F)(F)F)c1
discrete-label: YES
--
compound: Cc1nn(-c2cc(NS(C)(=O)=O)c(Cl)cc2Cl)c(=O)n1C(F)F
discrete-label: NO
--
compound: CC(Cc1ccc(O)cc1)NCC(O)c1cc(O)cc(O)c1 (centres undefined)
discrete-label: NO
--
compound: CCCCC(CC)COC(=O)c1ccccc1C(=O)OCC(CC)CCCC (centres undefined)
discrete-label: YES
--
compound: CSC(=O)c1c(C(F)F)nc(C(F)(F)F)c(C(=O)SC)c1CC(C)C
discrete-label: YES
--
compound: CC(Cl)CCl (centres undefined)
discrete-label: NO
--
compound: C#CCO
discrete-label: NO
--
compound: CC(C)NCC(O)c1ccccc1Cl (centres undefined)
discrete-label: NO
--
compound: Brc1cccc(-c2ccccc2)c1
discrete-label: YES

* * *

experiment: A CellTox Green Cytotoxicity Assay to monitor cytotoxicity in HepG2 cells - 32 hour (AID 1224883); conditions: CellTox Green fluorescence; series mostly up to 76.8 µM; also: nearly all actives have a fitted effect of over 50% in size
Inconclusive results are not listed. Activity calls are given as the source filed them. Calls come from the whole dose curve; as a rule, active = well fitted activation curve with a large enough effect in the repeat runs; inconclusive = weak or mixed curves; inactive = flat fitted curve, though single readings scatter.
Outcomes: active, inactive

compound: N#Cc1c2ccccc2cc2ccccc12
discrete-label: inactive

compound: Oc1ccc([C@H]2CNCc3c2ccc(O)c3O)cc1O
discrete-label: active

compound: Nc1cc(Cl)ccc1Cl
discrete-label: inactive

compound: [O]=[Cr][O][Cr]=[O]
discrete-label: inactive

compound: COC(=O)c1cc(Oc2ccc(Cl)cc2Cl)ccc1[N+](=O)[O-]
discrete-label: inactive

compound: Clc1ccc(C(c2ccc(Cl)cc2)C(Cl)Cl)cc1
discrete-label: inactive

compound: [Cl-].[Cl-].[Sn+2]
discrete-label: inactive

compound: Cc1ccccc1OP(=O)(Oc1ccccc1C)Oc1ccccc1C
discrete-label: inactive

compound: BrCC(Br)(Br)Br
discrete-label: inactive

compound: C[N+]1(C)[C@@H]2CC[C@H]1CC(OC(=O)C(CO)c1ccccc1)C2 (some centres not stated)
discrete-label: inactive

compound: CO/N=C(/C1=NOCCO1)c1ccccc1Oc1ncnc(Oc2ccccc2Cl)c1F
discrete-label: inactive

compound: O=c1c2ccccc2c(=O)c2c1cc(Cl)c1[nH]c3c([nH]c12)c(Cl)cc1c(=O)c2ccccc2c(=O)c13
discrete-label: inactive

* * *

target: Acetylcholinesterase (Homo sapiens); test: Acetylcholinesterase (AChE) small molecule antagonists: fluorescence cell-based qHTS assay (AID 1347398); conditions: SH-SY5Y cells; AChE activity; series mostly up to 115 µM; also: nearly all actives have a fitted effect of over 50% in size
Inconclusive results are not listed. Active and inactive are the calls of the source. Calls come from the whole dose curve.
Outcomes: active, inactive

compound: CSC(=O)c1c(C(F)F)nc(C(F)(F)F)c(C(=O)SC)c1CC(C)C
discrete-label: inactive
--
compound: CCOP(=S)(OCC)SC(CCl)N1C(=O)c2ccccc2C1=O (stereo not drawn)
discrete-label: active
--
compound: N#CCCl
discrete-label: inactive
--
compound: Nc1nc(N)nc(Cl)n1
discrete-label: inactive
--
compound: CNN
discrete-label: inactive
--
compound: Oc1ccc([C@H]2CNCc3c2ccc(O)c3O)cc1O
discrete-label: active
--
compound: N#Cc1sc2c(=O)c3ccccc3c(=O)c=2sc1C#N
discrete-label: active
--
compound: c1cc[n+]2c(c1)-c1cccc[n+]1CC2
discrete-label: inactive
--
compound: Cc1ccn2nc(S(=O)(=O)Nc3c(F)cccc3F)nc2n1
discrete-label: inactive
--
compound: CN1CCc2cc(Cl)c(O)cc2[C@H]2c3ccccc3CC[C@@H]21
discrete-label: active
--
compound: COP(=S)(OC)Oc1ccc([N+](=O)[O-])c(C)c1
discrete-label: active
--
compound: CC(Cl)CCl (stereo not drawn)
discrete-label: inactive
--
compound: CCN(CC)Cc1nccn1-c1ccc([N+](=O)[O-])cc1C(=O)c1ccccc1Cl
discrete-label: inactive

* * *

test: A CellTox Green Cytotoxicity Assay to monitor cytotoxicity in HEK293 cells - 32 hour (AID 1224881); details: CellTox Green fluorescence; series mostly up to 76.8 µM; also: nearly all actives have a fitted effect of over 40% in size
Inconclusive results are not listed. The source made the active and inactive calls. The call rests on the fitted dose curve; in most records, active means well fitted activation curve with a large enough effect in the repeat runs; inconclusive means weak or mixed curves; inactive means flat fitted curve, though single readings scatter.
Outcome codes: TRUE = active, FALSE = inactive

compound: COc1ccc(Cc2nccc3cc(OC)c(OC)cc23)cc1OC
discrete-label: FALSE

compound: CN1CCc2cc(Cl)c(O)cc2[C@H]2c3ccccc3CC[C@@H]21
discrete-label: FALSE

compound: CCC(C)Nc1c([N+](=O)[O-])cc(C(C)(C)C)cc1[N+](=O)[O-] (stereo unspecified)
discrete-label: FALSE

compound: CCC1COC(Cn2cncn2)(c2ccc(Cl)cc2Cl)O1 (stereo unspecified)
discrete-label: FALSE

compound: CCCCn1cc[n+](C)c1 (tested in a mixture with another compound)
discrete-label: FALSE

compound: N#Cc1sc2c(=O)c3ccccc3c(=O)c=2sc1C#N
discrete-label: TRUE

compound: Nc1ccc(Cl)cc1C(=O)c1ccccc1F
discrete-label: FALSE

compound: CC(C)(C)c1ccc(OP(=O)(Oc2ccccc2)Oc2ccccc2)cc1
discrete-label: FALSE

compound: Oc1cc(Cl)c(Cl)c(Cl)c1Cl
discrete-label: FALSE

compound: CCC[CH2][Sn]([CH2]CCC)([CH2]CCC)[O][Sn]([CH2]CCC)([CH2]CCC)[CH2]CCC
discrete-label: TRUE

compound: CCCCC/C=C\C/C=C\C/C=C\C/C=C\CCCC(=O)NCC(=O)O
discrete-label: FALSE

* * *

Assay: qHTS assay to identify small molecule antagonists of the glucocorticoid receptor (GR) signaling pathway - cell viability counter screen (AID 720693); also: nearly all actives have a fitted effect of over 55% in size
Settings: GR-bla HeLa viability, CellTiter-Glo luminescence, 18 h, with 5 nM dexamethasone present; series mostly up to 58.5 µM
Description: National Center for Advancing Translational Sciences [NCATS] NIH Chemical Genomics Center [NCGC] U.S. Environmental Protection Agency [EPA] National Institutes of Environmental Health Sciences [NIEHS] National Toxicology Program [NTP] U.S. Food and Drug Administration [FDA] The Glucocorticoid receptor (GR) is one of the members of the nuclear receptor family of ligand-dependent transcription factors. […] The activation of the reporter gene under culture conditions can be detected by fluorescence intensity. […]
Records with an inconclusive call do not appear. Active and inactive are the calls of the source. Calls come from the whole dose curve; as a rule, active = well fitted cell-killing curve with a large enough effect in the repeat runs; inconclusive = weak or mixed curves, or effect the other way; inactive = no such curve, though single readings can be large or run the other way.
Outcome codes: active, inactive

compound: CSC1=N[C@@](C)(c2ccccc2)C(=O)N1Nc1ccccc1
discrete-label: inactive
--
compound: Nc1ccccc1-c1ccccc1
discrete-label: inactive
--
compound: O=[N+]([O-])c1cccc2cccc([N+](=O)[O-])c12
discrete-label: inactive
--
compound: CCOC(=O)Cc1ccccc1
discrete-label: inactive
--
compound: CCC(C)Br (centres undefined)
discrete-label: inactive
--
compound: CC(=O)[O-].CC(=O)[O-].O.O.O.[Pb+2]
discrete-label: inactive
--
compound: COC(=O)C(C)N(C(=O)c1ccco1)c1c(C)cccc1C (centres undefined)
discrete-label: inactive
--
compound: FC(F)C(F)(F)OCC(Cn1cncn1)c1ccc(Cl)cc1Cl (centres undefined)
discrete-label: inactive
--
compound: CN=C=O
discrete-label: inactive
--
compound: CCOP(=S)(OCC)Oc1cc(C)nc(N(CC)CC)n1
discrete-label: inactive
--
compound: [Cl-].[Cl-].[Cl-].[Yb+3]
discrete-label: inactive
--
compound: N#CCCl
discrete-label: inactive
--
compound: CCC(C)c1cccc(C(C)CC)c1O (centres undefined)
discrete-label: inactive
--
compound: CC1=C2C[C@H]3[C@@H](CC=C4C[C@@H](O)CC[C@@]43C)[C@@H]2CC[C@]12O[C@@H]1C[C@H](C)CN[C@H]1[C@H]2C
discrete-label: inactive
--
compound: CCN(CC)Cc1nccn1-c1ccc([N+](=O)[O-])cc1C(=O)c1ccccc1Cl
discrete-label: inactive
--
compound: O=[N+]([O-])c1ccc(CCl)cc1
discrete-label: inactive
--
compound: CC(=O)[O][Sn]([c]1ccccc1)([c]1ccccc1)[c]1ccccc1
discrete-label: active
--
compound: CC(C)Br
discrete-label: inactive
--
compound: O.O.O.O.O.O.O.O=S(=O)([O-])[O-].[Co+2]
discrete-label: inactive
--
compound: COP(=S)(OC)Oc1ccc([N+](=O)[O-])c(C)c1
discrete-label: inactive
--
compound: N#Cc1sc2c(=O)c3ccccc3c(=O)c=2sc1C#N
discrete-label: active
--
compound: O=C(NC(=O)c1c(F)cccc1F)Nc1ccc(Oc2ccc(C(F)(F)F)cc2Cl)cc1F
discrete-label: inactive
--
compound: CN1C(=O)[C@@H](NC(=O)c2cc3ccccc3[nH]2)N=C(c2ccccc2)c2ccccc21
discrete-label: inactive
--
compound: O=C(N[C@H]1N=C(c2ccccc2F)c2cccc3c2N(CC3)C1=O)c1cc2ccccc2[nH]1
discrete-label: inactive
--
compound: CCN(CC)CCN1C(=O)CN=C(c2ccccc2F)c2cc(Cl)ccc21
discrete-label: inactive
--
compound: CSSC
discrete-label: inactive
--
compound: c1ccc2nc(N3CCNCC3)ccc2c1
discrete-label: inactive
--
compound: CC(Cl)CCl (centres undefined)
discrete-label: inactive
--
compound: O=P(Cl)(Cl)Cl
discrete-label: inactive
--
compound: CCN(CC)CCc1c[nH]c2ccccc12
discrete-label: inactive
--
compound: Cc1c([N+](=O)[O-])cc2c(c1[N+](=O)[O-])C(C)(C)CC2(C)C
discrete-label: inactive
--
compound: CC(=O)[O-].CC(=O)[O-].[Co+2]
discrete-label: inactive
--
compound: CC(C)N(C(=O)SC/C(Cl)=C/Cl)C(C)C
discrete-label: inactive
--
compound: BrCC(Br)(Br)Br
discrete-label: inactive
--
compound: CN(C)c1ccc(N)cc1
discrete-label: inactive
--
compound: CC(=O)[O-].CC(=O)[O-].O.O.[Zn+2]
discrete-label: inactive
--
compound: COC(=O)c1ccccc1S(=O)(=O)NC(=O)Nc1nc(C)nc(OC)n1
discrete-label: inactive
--
compound: C[C@]12C/C(=C/O)C(=O)C[C@@H]1CC[C@@H]1[C@@H]2CC[C@@]2(C)[C@H]1CC[C@]2(C)O
discrete-label: active
--
compound: CC(C)c1c(CN(C)C(C)Cc2ccccc2)n(C)n(-c2ccccc2)c1=O (centres undefined)
discrete-label: inactive
--
compound: CC(=O)[O][Pb]([c]1ccccc1)([c]1ccccc1)[c]1ccccc1
discrete-label: active
--
compound: N#CSCc1ccccc1
discrete-label: inactive
--
compound: Oc1cccc(Cl)c1Cl
discrete-label: inactive
--
compound: COc1ccc(Cc2nccc3cc(OC)c(OC)cc23)cc1OC
discrete-label: inactive
--
compound: CN1CCc2cc3c(cc2C1O)OCO3 (centres undefined)
discrete-label: inactive
--
compound: CC1(C)[C@H](/C=C2\CCSC2=O)[C@@H]1C(=O)OCc1coc(Cc2ccccc2)c1
discrete-label: inactive
--
compound: CCCCCON=O
discrete-label: inactive
--
compound: Clc1ccc(C2(Cn3cncn3)OCCO2)c(Cl)c1
discrete-label: inactive
--
compound: ClCBr
discrete-label: inactive
--
compound: Cc1cccc(Cc2cnc[nH]2)c1C
discrete-label: inactive
--
compound: CC(O)C(=O)[O][Hg][c]1ccccc1 (centres undefined)
discrete-label: active
--
compound: C[C@H]1[C@H](c2ccc(Cl)cc2)SC(=O)N1C(=O)NC1CCCCC1
discrete-label: inactive
--
compound: ClC(Cl)C(Cl)(Cl)Cl
discrete-label: inactive
--
compound: [O]=[Cr][O][Cr]=[O]
discrete-label: inactive
--
compound: O=Cc1ccccc1
discrete-label: inactive
